biological target: PAI-1 (Homo sapiens); assay: biochemical; format: biochemical; details: PAI chromogenic substrate assay
Sequence (P05121 24-402): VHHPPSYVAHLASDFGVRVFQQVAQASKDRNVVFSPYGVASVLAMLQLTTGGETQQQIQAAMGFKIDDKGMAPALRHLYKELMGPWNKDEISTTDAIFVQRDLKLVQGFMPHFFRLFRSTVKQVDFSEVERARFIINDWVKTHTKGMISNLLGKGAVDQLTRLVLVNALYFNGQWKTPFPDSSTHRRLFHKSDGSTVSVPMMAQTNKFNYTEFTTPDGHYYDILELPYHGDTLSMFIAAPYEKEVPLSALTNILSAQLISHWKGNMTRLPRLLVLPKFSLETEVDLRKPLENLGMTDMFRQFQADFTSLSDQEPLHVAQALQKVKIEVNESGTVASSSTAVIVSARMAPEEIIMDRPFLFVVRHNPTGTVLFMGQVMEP
Counter-ions that a name gives are not always drawn.
Label True when IC50 < 10 µM; otherwise False.

{"compound": "CC(=O)Nc1ccc(/C=c2\\[nH]c(=O)/c(=C/c3ccc(SCCN(C)C)s3)[nH]c2=O)cc1", "class-assignment": "False"}
{"compound": "CN(C)CCSc1ccc(/C=c2\\[nH]c(=O)/c(=C/c3cn(C)c4ccccc34)[nH]c2=O)s1 [Compound 5473.HCl]", "class-assignment": "False"}
{"compound": "Cc1ccc(/C=c2\\[nH]c(=O)/c(=C/c3ccc(SCCN(C)C)cc3)[nH]c2=O)cc1 [Compound 5463]", "class-assignment": "True"}
{"compound": "CN(C)CCSc1ccc(/C=c2\\[nH]c(=O)/c(=C/c3cccc(Br)c3)[nH]c2=O)cc1 [Compound 5425.HCl]", "class-assignment": "True"}

Now take the following compound into account.
Say whether its IC50 is strictly beneath 10 µM. Entry: COc1ccc2ccccc2c1/C=c1\[nH]c(=O)/c(=C/c2ccc(SCCN(C)C)s2)[nH]c1=O [Compound 5499]
False
